Hello, the source for this data is ChEMBL document CHEMBL5441456, in case you need it.

This listing pairs compounds with measured pIC50.
molecular target: Replicase polyprotein 1ab (Severe acute respiratory syndrome coronavirus 2); assay: Functional biochemical assay to identify treatments for viral infectious disease that targets SARS-COV-2 nsp3 macrodomain, whereby the mechanism of action displaces an ADP-Ribose modified peptide from the binding site. Utilizing a time-resolved fluorescence method to measure binding by reading the emitted fluorescence intensity in two wavelengths.
pIC50: −log10 of the molar value.
OBSERVABLE: pIC50

>>> df
                                   compound  observable     val
0  O=C(O)CC(NC(=O)c1ncnc2[nH]ccc12)c1ccc(NC2C[C@H]3CC(CO)C[C@@H]23)cc1 (some centres undefined)       pIC50  < 4.00
1  CC(C)[C@@H](NCc1ccc(-n2cccn2)cc1)c1ccc2c(c1)OCCO2       pIC50  < 4.00
2  Cc1[nH]c2ncnc(NC(=O)c3ncn(-c4ccccc4)n3)c2c1C       pIC50  < 4.00
3  COc1cccc(CSC[C@@H](NC(=O)c2ncnc3[nH]ccc23)C(=O)O)c1       pIC50  < 4.00
4  Cc1[nH]c2ncnc(NC(=O)c3ccc(-n4cccc4)nc3)c2c1C       pIC50  < 4.00
5  O=C(N[C@H]1CCC[C@H]1C(=O)O)c1cnn2ccc(C3CCN(C(=O)c4ccccc4)CC3)cc12       pIC50    4.45
6  Cc1cc(C)cc(CS(=O)(=O)Nc2cnc3[nH]ccc3c2)c1       pIC50  < 4.00
7  CCNC(=O)c1cc2c(N[C@H](c3ccc4c(c3)OCCO4)C(C)C)ncnc2[nH]1       pIC50    4.33
8  CC(C)[C@@H](Nc1ncnc2[nH]c(-c3ccc(C4(C#N)CC4)cc3)cc12)c1ccc2c(c1)OCCO2       pIC50  < 4.00
